meta.source: paper PMC6522912

System Tested: UniProt:P11880
Sequence (P11880 whole entry): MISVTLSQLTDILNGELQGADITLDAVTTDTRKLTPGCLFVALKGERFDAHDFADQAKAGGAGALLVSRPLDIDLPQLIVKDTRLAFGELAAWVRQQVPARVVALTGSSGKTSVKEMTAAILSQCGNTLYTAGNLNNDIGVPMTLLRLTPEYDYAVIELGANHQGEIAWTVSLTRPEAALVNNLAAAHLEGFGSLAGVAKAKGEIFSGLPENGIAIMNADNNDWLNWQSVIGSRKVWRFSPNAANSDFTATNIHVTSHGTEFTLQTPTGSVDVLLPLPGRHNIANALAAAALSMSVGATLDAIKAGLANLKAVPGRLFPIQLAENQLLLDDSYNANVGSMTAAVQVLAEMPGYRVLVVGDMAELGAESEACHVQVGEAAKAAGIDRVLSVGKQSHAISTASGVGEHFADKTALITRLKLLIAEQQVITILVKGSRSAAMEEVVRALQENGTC
Assay Notes: biochemical
Settings: 0.25 h, Table S1, PKIS screening; read-out: RA [%] at 100 µM MurF
Consider the following partition of reported remaining activity at 100 µM into named classes: bin A = under 80%, bin B = from 80% up to 90%, bin C = 90% and over

O=C(Nc1ccc(Oc2ccc3nc(NC(=O)c4ccco4)[nH]c3c2)cc1)Nc1cc(C(F)(F)F)ccc1F [GW683134A] :: bin C
CCS(=O)(=O)c1ccc(OC)c(Nc2ncc(-c3cccc(C(C)=O)c3)o2)c1 [GW621431X] :: bin A
Nc1nccc(-c2c(-c3ccc(F)cc3)ncn2CCCN2CCOCC2)n1 [SB-216385] :: bin C
Nc1nccc(C#Cc2cncnc2Nc2ccc(OCc3cccc(F)c3)c(Cl)c2)n1 [GW799251X] :: bin A
COc1cc2ncn(-c3cc(OCc4ccccc4Cl)c(C(N)=O)s3)c2cc1OC [GW852849X] :: bin B
c1cc(-c2cnn3nc(N4CCOCC4)ccc23)nc(NC2CC2)n1 [GW708336X] :: bin C
O=C1Nc2ccccc2/C1=C1\CCc2cc(O)ccc21 [GR105659X] :: bin C
CN1CCN(C(=O)c2ccc(NC(=O)Nc3ccc(N(C)c4ccnc(Nc5ccc(CS(C)(=O)=O)cc5)n4)cc3)cc2)CC1 [GW830263A] :: bin A
CS(=O)(=O)CCNCc1nc(-c2ccc3ncnc(Nc4ccc(F)c(Cl)c4)c3c2)cs1 [GW461104A] :: bin B
Cc1cc(O)cc(C)c1/C=C/c1cncc(C(N)=O)c1 [GW435821X] :: bin A

Please let me know in which category the item Fc1ccc(-c2ncn(C3CCNCC3)c2-c2ccnc(Oc3ccc(F)c(F)c3)n2)cc1 [SB-253228] belongs.
bin A

Please let me know in which category the item O=C1Nc2ccccc2/C1=C/Nc1ccc(-n2cncn2)cc1 [GW301789X] belongs.
bin A

Please let me know in which category the item NS(=O)(=O)c1ccc(N/N=C2\C(=O)Nc3ccc(C(=O)NCCc4c[nH]cn4)cc32)cc1 [GW300660X] belongs.
bin C

Please let me know in which category the item NC(=O)c1sc(-n2cnc3ccccc32)cc1OCc1ccccc1Br [GSK1023156A] belongs.
bin B

Please let me know in which category the item Nc1nc(-c2cccc(Cl)c2)c(-c2ccc3ncccc3n2)s1 [GW780159X] belongs.
bin B

Please let me know in which category the item CN1CCC(n2cnc(-c3ccc(F)cc3)c2-c2ccnc(Nc3ccccc3)n2)CC1 [SB-236687] belongs.
bin A
